B1: LINE1-full (parent)
chain: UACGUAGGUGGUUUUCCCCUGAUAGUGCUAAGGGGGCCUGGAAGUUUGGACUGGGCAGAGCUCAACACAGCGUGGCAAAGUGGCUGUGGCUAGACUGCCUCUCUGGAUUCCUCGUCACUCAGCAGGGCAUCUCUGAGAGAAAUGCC

- Variants of: B1
- PROTOCOL_DESCRIPTION: self-cleavage, relative activity (ratio to wild type); higher = more cleavage; in vitro, sequencing; the parent is a self-cleaving ribozyme
Would you please tag the item criterion met when its self-cleavage is 0.9 or above, and criterion not met when it is below?

MUTATIONS	CATEGORY_LABEL
A59G G144A	criterion not met
G127A	criterion met
G80A U112C	criterion met
U20C C71U	criterion not met
C16U U104C	criterion met
U104G U134C	criterion met
C16U U91C	criterion not met
C113U A124U	criterion met
A42U G53A	criterion met
C90A A107G	criterion not met
U62A A92U	criterion not met
A69G U87A	criterion not met
U29A A138G	criterion met
A65G G105A	criterion not met
G53A A142G	criterion met
U29C C128U	criterion met
U62A U104C	criterion not met
U100A U119A	criterion not met
A30G G36C	criterion met
A69U C95A	criterion not met
